Test system: SW872
Assay: relative viability vs DMSO control (72 h) (fraction); higher = more viable cells
Details: 0.04115 µM
Structures can show the parent of a compound that is named as a salt.

compound	relative viability
CC(=O)Nc1cccc(-n2c(=O)n(C3CC3)c(=O)c3c(Nc4ccc(I)cc4F)n(C)c(=O)c(C)c32)c1	0.607
C[C@]1(O)C[C@@H](c2nc(-c3ccc4ccc(-c5ccccc5)nc4c3)c3c(N)nccn32)C1	0.973
Cc1ccc(NC(=O)c2ccc(CN3CCN(C)CC3)cc2)cc1Nc1nc(-c2cccnc2)cs1	1.06
COc1cccc2c1C(=O)c1c(O)c3c(c(O)c1C2=O)C[C@@](O)(C(=O)CO)C[C@@H]3O[C@H]1C[C@H](N)[C@H](O)[C@H](C)O1 [Doxorubicin Hydrochloride]	0.961

---

Tested on: SW684
Assay: relative viability vs DMSO control (72 h) (fraction); higher = more viable cells
Details: 0.00152 µM
Entries and their relative viability
readout: relative viability

> print(dat)
                                 smilestext  experimentalvalue
1  Cc1cc(Nc2ncnc3ccc(NC4=NC(C)(C)CO4)cc23)ccc1Oc1ccn2ncnc2c1                1.2
2  COc1cc2nccc(Oc3ccc(NC(=O)Nc4cc(C)on4)c(Cl)c3)c2cc1OC               1.19
3  CN1CCC(COc2cnc(-c3cccc(Cn4nc(-c5cccc(C#N)c5)ccc4=O)c3)nc2)CC1               1.14
4  Cc1nc(NC(=O)N2CCC[C@H]2C(N)=O)sc1-c1ccnc(C(C)(C)C(F)(F)F)c1               1.12
5  Nc1cc(C(F)(F)F)c(-c2cc(N3CCOCC3)nc(N3CCOCC3)n2)cn1               1.11
6  C[C@@H]1CCN(C(=O)CC#N)C[C@@H]1N(C)c1ncnc2[nH]ccc12                1.2
7  Cc1cnc(Nc2ccc(OCCN3CCCC3)cc2)nc1Nc1cccc(S(=O)(=O)NC(C)(C)C)c1               1.17
8  CC(=O)Nc1cccc(-n2c(=O)n(C3CC3)c(=O)c3c(Nc4ccc(I)cc4F)n(C)c(=O)c(C)c32)c1               1.19

---

Test system: SW1353
Assay: relative viability vs DMSO control (72 h) (fraction); higher = more viable cells
Conditions: 0.01372 µM
Where a name gives a salt, the structure may show the parent alone.

compound	relative viability
Cc1nc(-c2cn3c(n2)-c2ccc(-c4cnn(C(C)(C)C(N)=O)c4)cc2OCC3)n(C(C)C)n1 [Taselisib]	0.884
CNC(=O)c1cc(Oc2ccc(NC(=O)Nc3ccc(Cl)c(C(F)(F)F)c3)c(F)c2)ccn1 [Regorafenib]	1.04
COc1cccc2c1C(=O)c1c(O)c3c(c(O)c1C2=O)C[C@@](O)(C(=O)CO)C[C@@H]3O[C@H]1C[C@H](N)[C@H](O)[C@H](C)O1 [Doxorubicin Hydrochloride]	0.882
O=C(Nc1cnn2ccc(N3CCC[C@@H]3c3cc(F)ccc3F)nc12)N1CC[C@H](O)C1 [Larotrectinib]	1.03
CO[C@H]1C[C@@H]2CC[C@@H](C)[C@@](O)(O2)C(=O)C(=O)N2CCCC[C@H]2C(=O)O[C@H]([C@H](C)C[C@@H]2CC[C@@H](OP(C)(C)=O)[C@H](OC)C2)CC(=O)[C@H](C)/C=C(\C)[C@@H](O)[C@@H](OC)C(=O)[C@H](C)C[C@H](C)/C=C/C=C/C=C/1C [Ridaforolimus]	0.747
Cn1cnc2c(F)c(Nc3ccc(Br)cc3F)c(C(=O)NOCCO)cc21 [Binimetinib]	0.981
C[C@@H]1COCCN1c1cc(-c2ccnn2C)c2ccnc(-c3ccn[nH]3)c2n1	0.933
CN1CCC(COc2cnc(-c3cccc(Cn4nc(-c5cccc(C#N)c5)ccc4=O)c3)nc2)CC1 [Tepotinib]	0.984
Cc1nc(NC(=O)N2CCC[C@H]2C(N)=O)sc1-c1ccnc(C(C)(C)C(F)(F)F)c1 [Alpelisib]	0.977
Cc1ccc(F)c(NC(=O)Nc2ccc(-c3cccc4[nH]nc(N)c34)cc2)c1 [Linifanib]	1
Cc1ccc(NC(=O)c2ccc(CN3CCN(C)CC3)cc2)cc1Nc1nc(-c2cccnc2)cs1 [Masitinib]	0.989
C[C@@H](c1ccc2nccn2c1)n1nnc2ncc(-c3cnn(C)c3)nc21 [Volitinib]	1.02
Cc1cc(C)c(/C=C2\C(=O)Nc3ccccc32)[nH]1 [Semaxanib]	0.865
CC(=O)Nc1cccc(-n2c(=O)n(C3CC3)c(=O)c3c(Nc4ccc(I)cc4F)n(C)c(=O)c(C)c32)c1 [Trametinib]	0.745
CCN1CCN(Cc2ccc(Nc3ncc(F)c(-c4cc(F)c5nc(C)n(C(C)C)c5c4)n3)nc2)CC1 [Abemaciclib]	0.933

---

Entries and their standardised AUC
System: SW684
Experiment: standardised AUC of viability dose-response curve (72 h) (fraction (0-1)); higher = less growth inhibition (more resistant)

compound	standardised AUC
CC1(C)CNc2cc(NC(=O)c3cccnc3NCc3ccncc3)ccc21 [MOTESANIB]	0.95
Cn1cc(-c2cc3c(N4CCN(c5ncc([C@@](C)(N)c6ccc(F)cc6)cn5)CC4)ncnn3c2)cn1 [AVAPRITINIB]	0.977
CCCS(=O)(=O)Nc1ccc(F)c(C(=O)c2c[nH]c3ncc(-c4ccc(Cl)cc4)cc23)c1F [VEMURAFENIB]	0.97
CNC(=O)c1cc(Oc2ccc(NC(=O)Nc3ccc(Cl)c(C(F)(F)F)c3)c(F)c2)ccn1 [REGORAFENIB]	0.992
Cc1cnc(Nc2ccc(OCCN3CCCC3)cc2)nc1Nc1cccc(S(=O)(=O)NC(C)(C)C)c1 [FEDRATINIB]	0.825
CCc1cc2c(cc1N1CCC(N3CCOCC3)CC1)C(C)(C)c1[nH]c3cc(C#N)ccc3c1C2=O [ALECTINIB]	1
CC(=O)Nc1cccc(-n2c(=O)n(C3CC3)c(=O)c3c(Nc4ccc(I)cc4F)n(C)c(=O)c(C)c32)c1 [TRAMETINIB]	0.714
CC(C)NC(=O)C1CCC(n2c(NC(=O)c3ccc(F)cc3)nc3ccc(CN4CCC(C(C)(C)O)CC4)cc32)CC1 (stereo unspecified) [BELIZATINIB]	0.925
CCN1CCN(Cc2ccc(Nc3ncc(F)c(-c4cc(F)c5nc(C)n(C(C)C)c5c4)n3)nc2)CC1 [ABEMACICLIB]	0.901
C=CC(=O)N1CCC[C@@H](n2nc(-c3ccc(Oc4ccccc4)cc3)c3c(N)ncnc32)C1 [IBRUTINIB]	0.997
C[C@@H]1CCN(C(=O)CC#N)C[C@@H]1N(C)c1ncnc2[nH]ccc12 [TOFACITINIB]	0.967
O=C(Nc1cnn2ccc(N3CCC[C@@H]3c3cc(F)ccc3F)nc12)N1CC[C@H](O)C1 [LAROTRECTINIB]	0.985
Cc1cc(C)c(/C=C2\C(=O)Nc3ccccc32)[nH]1 [SEMAXANIB]	0.939
CO[C@H]1C[C@@H]2CC[C@@H](C)[C@@](O)(O2)C(=O)C(=O)N2CCCC[C@H]2C(=O)O[C@H]([C@H](C)C[C@@H]2CC[C@@H](OP(C)(C)=O)[C@H](OC)C2)CC(=O)[C@H](C)/C=C(\C)[C@@H](O)[C@@H](OC)C(=O)[C@H](C)C[C@H](C)/C=C/C=C/C=C/1C [RIDAFOROLIMUS]	0.798
C=CC(=O)N1CCC([C@@H]2CCNc3c(C(N)=O)c(-c4ccc(Oc5ccccc5)cc4)nn32)CC1 [ZANUBRUTINIB]	0.97
C[C@]1(O)C[C@@H](c2nc(-c3ccc4ccc(-c5ccccc5)nc4c3)c3c(N)nccn32)C1 [LINSITINIB]	0.965

---

Entries and their relative viability
Test system: SK-LMS-1
Assay: relative viability vs DMSO control (72 h) (fraction); higher = more viable cells
Conditions: 0.01372 µM
readout: relative viability

> print(dat)
                                   compound  experimentalvalue
1  C[C@@H](c1ccc2nccn2c1)n1nnc2ncc(-c3cnn(C)c3)nc21              0.763
2  O=C(Cc1ccc(-c2ccc(OCCN3CCOCC3)cc2)cn1)NCc1ccccc1               0.99
3  Cc1ccc(F)c(NC(=O)Nc2ccc(-c3cccc4[nH]nc(N)c34)cc2)c1               1.03
4  COc1cc2c(Oc3ccc4[nH]c(C)cc4c3F)ncnc2cc1OCCCN1CCCC1              0.989
5  COCc1c(-c2cc3cc(C)cc(OC)c3s2)c2c(N)ncnn2c1CN1CCNC(=O)C1              0.995
6  Cc1ccc(NC(=O)c2ccc(CN3CCN(C)CC3)cc2)cc1Nc1nc(-c2cccnc2)cs1               1.02
7  CC(C)NC(=O)C1CCC(n2c(NC(=O)c3ccc(F)cc3)nc3ccc(CN4CCC(C(C)(C)O)CC4)cc32)CC1 (stereo not drawn)               1.07
8  Cc1cnc(Nc2ccc(OCCN3CCCC3)cc2)nc1Nc1cccc(S(=O)(=O)NC(C)(C)C)c1               1.04

Where do the numbers come from? From the supplement of paper PMC10883282.
